These data points were gathered from patent US20110039860A1.

Molecular target: human sEH enzyme (Homo sapiens)
Construct: His-tag (pET100 vector) (N, cleaved yes); made in house; host or cells: E. coli
Sequence (P34913 1-555): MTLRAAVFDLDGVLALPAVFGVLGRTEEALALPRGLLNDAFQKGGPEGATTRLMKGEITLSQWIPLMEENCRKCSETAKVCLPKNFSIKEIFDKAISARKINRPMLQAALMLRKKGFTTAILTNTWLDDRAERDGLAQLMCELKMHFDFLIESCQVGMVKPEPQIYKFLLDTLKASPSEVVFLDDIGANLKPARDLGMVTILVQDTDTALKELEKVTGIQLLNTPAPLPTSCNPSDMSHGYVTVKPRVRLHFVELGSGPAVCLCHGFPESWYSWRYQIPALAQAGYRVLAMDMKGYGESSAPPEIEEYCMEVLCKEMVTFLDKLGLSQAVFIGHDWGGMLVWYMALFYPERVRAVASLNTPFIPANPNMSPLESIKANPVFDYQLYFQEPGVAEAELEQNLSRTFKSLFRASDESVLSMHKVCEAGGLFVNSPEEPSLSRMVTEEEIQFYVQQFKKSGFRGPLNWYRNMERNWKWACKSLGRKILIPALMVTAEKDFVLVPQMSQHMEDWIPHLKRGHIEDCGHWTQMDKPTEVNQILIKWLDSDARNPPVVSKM
Assay: sEH human enzyme assay (fluorescence based enzyme in vitro assay)
Format: biochemical
Conditions: recombinant human sEH about 1 nM, fluorescence substrate S7 10 uM, 25° C.; read-out: IC50 [nM] for human sEH enzyme inhibition
Parameter: IC50. Scope: all listed entries.
Write it as a number; the unit nM goes unstated.

>>> experimental_value("FC(F)(F)c1ccccc1-c1ccc(NC2CCOCC2)nc1")
200
>>> experimental_value("FC(F)(F)c1ccccc1-c1ccc(NCc2ccccc2)nc1")
25
>>> experimental_value("FC(F)(F)c1cc(-c2nnn[nH]2)ccc1-c1ccc(NCC2CCCCC2)nc1")
53

Item Fc1cccc(C(F)(F)F)c1-c1ccc(NCC2CCCCC2)nc1 has what recorded IC50?
1

Item FC(F)(F)c1ccccc1-c1ccc(NCC2CC2)nc1 has what recorded IC50?
53

----------
Biological target: human sEH enzyme (Homo sapiens)
Construct: His-tag (pET100 vector) (N, cleaved yes); made in house; host or cells: E. coli
Sequence (P34913 1-555): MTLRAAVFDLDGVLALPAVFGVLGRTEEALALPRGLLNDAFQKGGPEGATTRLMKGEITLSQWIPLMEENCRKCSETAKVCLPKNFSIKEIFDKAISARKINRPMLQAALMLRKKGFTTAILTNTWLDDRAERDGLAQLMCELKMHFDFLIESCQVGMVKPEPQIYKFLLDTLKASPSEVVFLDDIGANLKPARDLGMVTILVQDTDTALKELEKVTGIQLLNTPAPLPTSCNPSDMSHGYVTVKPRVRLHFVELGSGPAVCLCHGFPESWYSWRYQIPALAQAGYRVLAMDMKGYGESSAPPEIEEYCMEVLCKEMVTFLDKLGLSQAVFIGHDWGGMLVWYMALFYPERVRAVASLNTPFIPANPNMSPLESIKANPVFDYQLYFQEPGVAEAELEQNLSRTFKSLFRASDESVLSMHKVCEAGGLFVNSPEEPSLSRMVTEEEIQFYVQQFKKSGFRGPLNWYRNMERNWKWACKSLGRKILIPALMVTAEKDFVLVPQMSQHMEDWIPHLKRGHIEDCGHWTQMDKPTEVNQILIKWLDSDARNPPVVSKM
Test: sEH human enzyme assay (fluorescence based enzyme in vitro assay)
Type: biochemical
Conditions: recombinant human sEH about 1 nM, fluorescence substrate S7 10 uM, 25° C.; read-out: IC50 [nM] for human sEH enzyme inhibition
Parameter: log10 IC50. Scope: all listed entries.
Short version: log10 scale, IC50, nM.

>>> experimental_value("O=C(O)CCCOc1ccc(-c2ccc(NCC3CCCCC3)nc2)c(C(F)(F)F)c1 [II-2]")
1.82
>>> experimental_value("FC(F)(F)c1ccccc1-c1ccc(NCC2CCCCC2)nn1 [Compound I-17]")
0.90
>>> experimental_value("O=C(NCC1CCCCC1)c1ccc(-c2ccc(NCC3CCCCC3)nc2)c(C(F)(F)F)c1 [II-4]")
0.60
>>> experimental_value("FC(F)(F)Oc1cccc(CNc2ccc(-c3ccccc3C(F)(F)F)cn2)c1 [Compound I-12]")
1.72
>>> experimental_value("FC(F)(F)c1ccnc(N2CCN(CCNc3ccc(-c4ccccc4C(F)(F)F)cn3)CC2)n1 [Compound I-25]")
1.41
>>> experimental_value("Fc1cccc(C(F)(F)F)c1-c1ccc(NCCc2c[nH]cn2)nc1 [Compound I-20]")
1.83
>>> experimental_value("O=C(c1ccccc1C(F)(F)F)N1CCC(CNc2ccc(-c3ccccc3C(F)(F)F)cn2)CC1 [Compound I-6]")
0.48
>>> experimental_value("FC(F)(F)c1ccccc1-c1ccc(NCCC(c2ccccc2)c2ccccc2)nc1 [Compound I-9]")
2.92
>>> experimental_value("CC(C)(C)OC(=O)N1CCC(CNc2ccc(-c3cnccc3C(F)(F)F)cn2)CC1 [Compound I-15]")
0.90
>>> experimental_value("FC(F)(F)c1cc(-c2cccnc2)nn1-c1ccc(NCC2CCCCC2)nc1 [III-1]")
0.48

Item Fc1cccc(Cl)c1CCNc1ccc(-c2c(F)cccc2C(F)(F)F)cn1 [Compound I-5] has what recorded log10 IC50?
0.30

Item O=C(N[C@H]1CC[C@H](CNc2ccc(-c3ccccc3C(F)(F)F)cn2)CC1)c1ccccc1C(F)(F)F [Compound I-14] has what recorded log10 IC50?
0.85

Item NC(=O)c1ccc(-c2ccc(NCC3CCCCC3)nc2)c(C(F)(F)F)c1 [II-5] has what recorded log10 IC50?
0.60

Item FC(F)(F)c1ccccc1-c1ccc(NCc2cccnc2)nc1 [Compound I-19] has what recorded log10 IC50?
1.96

Item O=C(c1cccnc1)N1CCC(CNc2ccc(-c3ccccc3C(F)(F)F)cn2)CC1 [Compound I-4] has what recorded log10 IC50?
0.95

Item FC(F)(F)c1cccnc1-c1ccc(NCC2CCCCC2)nc1 [Compound I-7] has what recorded log10 IC50?
1.51

Item O=C(O)C1CCN(C(=O)c2ccc(-c3ccc(NCCc4c(F)cccc4Cl)nc3)c(C(F)(F)F)c2)CC1 [II-1] has what recorded log10 IC50?
2.30

----------
Molecular target: human sEH enzyme (Homo sapiens, UniProt P34913)
Construct: His-tag (pET100 vector) (N, cleaved yes); made in house; host or cells: E. coli
Experiment: sEH human enzyme assay (fluorescence based enzyme in vitro assay)
Assay type: biochemical
Settings: recombinant human sEH about 1 nM, fluorescence substrate S7 10 uM, 25° C.; read-out: IC50 [nM] for human sEH enzyme inhibition
PROPERTY: IC50 (nM)
Write it as a number; the unit nM goes unstated.

>>> experimental_value("FC(F)(F)c1ccccc1-c1cnc(NCC2CCCCC2)cn1")
651
>>> experimental_value("O=S(=O)(c1ccccc1C(F)(F)F)N1CCC(CNc2ccc(-c3ccccc3C(F)(F)F)cn2)CC1")
18
>>> experimental_value("O=C(O)c1cccc(-c2ccc(-c3ccc(NCC4CCCCC4)nc3)c(C(F)(F)F)c2)c1")
5
>>> experimental_value("FC(F)(F)c1ccccc1-c1ccc(NCCN2CCN(c3cccc(Cl)c3)CC2)nc1")
7
>>> experimental_value("FC(F)(F)c1ccccc1-c1ccc(NCCc2c[nH]cn2)nc1")
100

Item Clc1ccccc1-c1ccc(NCC2CCCCC2)nc1 has what recorded IC50?
32

Item FC(F)(F)c1ccccc1-c1ccc(NCc2cccc3ccccc23)nc1 has what recorded IC50?
31

Item O=C(O)C12CCC(CNc3ccc(-c4c(F)cccc4C(F)(F)F)cn3)(CC1)C2 has what recorded IC50?
130

Item O=C(O)[C@H]1CC[C@H](CCNc2ccc(-c3c(F)cccc3C(F)(F)F)cn2)CC1 has what recorded IC50?
19
